- experimentalProtocol: Pharmacokinetics of free crystal form A in Beagle dogs
- Assay type: in vivo
- testSettings: both sexes, Beagle, dog, plasma, po; i.g. 2 mg/kg single, male/female mean
reportedEndpoint: Tmax

[
  {
    "molecule": "CC[S@@](=N)(=O)C[C@H]1CC[C@H](N(C)c2ncnc3[nH]ccc23)CC1 [Free crystal form A]",
    "measuredResult": "1.33 h"
  }
]

###

- experimentalProtocol: Pharmacokinetics of free crystal form A in Beagle dogs
- Format: in vivo
- testSettings: both sexes, Beagle, dog, plasma, po; i.g. 6 mg/kg once a day, seventh administration, male/female mean
- Procedure: All the animals in this experiment were randomly divided into 4 groups (3 dogs/sex/group). […] The drug concentration in the plasma of each Beagle dog was determined by liquid chromatography with tandem mass spectrometry (LC-MS/MS). The obtained plasma concentration data was analyzed by using the pharmacokinetic processing software WinNonlin 8.0 with a non-compartmental model to calculate relevant pharmacokinetic parameters.
reportedEndpoint: Tmax at 7 days (min)

[
  {
    "molecule": "CC[S@@](=N)(=O)C[C@H]1CC[C@H](N(C)c2ncnc3[nH]ccc23)CC1 [Free crystal form A]",
    "measuredResult": 45
  }
]

###

- experimentalProtocol: Pharmacokinetics of free crystal form A in Beagle dogs
- Assay type: in vivo
- testSettings: both sexes, Beagle, dog, plasma, po; i.g. 6 mg/kg once a day, seventh administration, male/female mean

[
  {
    "compound": "CC[S@@](=N)(=O)C[C@H]1CC[C@H](N(C)c2ncnc3[nH]ccc23)CC1 [Free crystal form A]",
    "unitsSymbol": "ng/mL",
    "Cmax at 7 days": 4540
  }
]

###

- experimentalProtocol: Pharmacokinetics of free crystal form A in Beagle dogs
- Type: in vivo
- testSettings: both sexes, Beagle, dog, plasma, po; i.g. 20 mg/kg single, male/female mean
reportedEndpoint: Tmax (min)

[
  {
    "molecule": "CC[S@@](=N)(=O)C[C@H]1CC[C@H](N(C)c2ncnc3[nH]ccc23)CC1 [Free crystal form A]",
    "reportedEndpoint": "Tmax",
    "measuredResult": 47.5
  }
]

###

- experimentalProtocol: Pharmacokinetics of free crystal form A in Beagle dogs
- Format: in vivo
- testSettings: both sexes, beagle, dog, plasma, iv; i.v. 2 mg/kg, male and female, mean; read-out: VdSS

[
  {
    "compound": "CC[S@@](=N)(=O)C[C@H]1CC[C@H](N(C)c2ncnc3[nH]ccc23)CC1 [Free crystal form A]",
    "Vd [L/kg]": 0.939
  }
]

###

- experimentalProtocol: Pharmacokinetics of free crystal form A in Beagle dogs
- Format: in vivo
- testSettings: both sexes, Beagle, dog, plasma, po, 6 mg/kg, i.g. 6 mg/kg once a day, seventh administration, male/female mean
reportedEndpoint: AUC(0-t) (ng·h/mL)

[
  {
    "molecule": "CC[S@@](=N)(=O)C[C@H]1CC[C@H](N(C)c2ncnc3[nH]ccc23)CC1 [Free crystal form A]",
    "reportedEndpoint": "AUC(0-t)",
    "unitsSymbol": "ng·h/mL",
    "measuredResult": 26600
  }
]

###

- experimentalProtocol: Pharmacokinetics of free crystal form A in Beagle dogs
- Type: in vivo
- testSettings: both sexes, Beagle, dog, plasma, po; i.g. 2 mg/kg single, male/female mean
reportedEndpoint: half-life (min)

[
  {
    "compound": "CC[S@@](=N)(=O)C[C@H]1CC[C@H](N(C)c2ncnc3[nH]ccc23)CC1 [Free crystal form A]",
    "measuredResult": 233
  }
]
